molecular target: human Claudin 18.2 (hCLDN18.2) (human, UniProt P56856-2 1-261); assay: cell-based or functional assay
value type: CDC Maximum lysis (%)

[[record]]
binder = "hu299B2-S32A-2 (antibody, V domains shown, also called humanized antibody hu299B2-S32A) VH: QVQLVQSGAEVKKPGASVKVSCKASGYIFTNYWIHWVRQAPGQGLEWMGRIYPGTGNTYYNEKFTGRVTMTRDTSTSTVYMELSSLRSEDTAVYYCAREGYGKGNSMDYWGQGTTVTVSS VL: DIVMTQSPDSLAVSLGERATMNCKSSQSLLNAGNQKNYLTWYQQKPGQPPKLLFYWASTRESGVPDRFSGSGSGTDFTLTISSLQAEDVAVYHCQNAYYYPYTFGGGTKLEIK"
value_type = "CDC Maximum lysis (%)"
observed_measurement = 99.7

[[record]]
binder = "hu299B2-S32A-4 (antibody, V domains shown, also called humanized antibody hu299B2-S32A) VH: QVQLVQSGAEVKKPGASVKVSCKTSGYIFTNYWIHWVRQAPGQGLEWMGRIYPGTGNTYYNEKFTGRVTLTADTSTSTVYMELSSLRSEDTAVYYCSREGYGKGNSMDYWGQGTTVTVSS VL: DIVMTQSPDSLAVSLGERATINCKSSQSLLNAGNQKNYLTWYQQKPGQPPKLLIYWASTRESGVPDRFSGSGSGTDFTLTISSLQAEDVAVYYCQNAYYYPYTFGGGTKLEIK"
value_type = "CDC Maximum lysis (%)"
observed_measurement = 99.9

[[record]]
binder = "hu299B2-S32A-1 (antibody, V domains shown, also called humanized antibody hu299B2-S32A) VH: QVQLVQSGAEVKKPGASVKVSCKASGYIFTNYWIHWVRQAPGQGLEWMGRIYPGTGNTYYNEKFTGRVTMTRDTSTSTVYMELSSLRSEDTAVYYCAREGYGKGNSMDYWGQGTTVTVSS VL: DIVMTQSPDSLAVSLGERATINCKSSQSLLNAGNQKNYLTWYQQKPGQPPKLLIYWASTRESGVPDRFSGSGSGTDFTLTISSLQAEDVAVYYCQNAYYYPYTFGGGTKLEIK"
value_type = "CDC Maximum lysis (%)"
observed_measurement = 99.2

